Here, each record is paired with measured pIC50 data.
# Target or system: CyclinE/cdk2 (Homo sapiens, UniProt P24941)
# Assay explanation: CyclinE/cdk2 protein kinase assay (histone H1 phosphorylation)
# Experimental conditions: IC50 CyclinE/cdk2, complex immunopurified from HeLa cells; 15 μM ATP; replicate experiments
When answering, recall that pIC50 equals minus log10 of the concentration in mol/L, and write that number alone.

Consider the worked cases shown below.
[
  {
    "Compound": "CC(=O)N[C@H]1CC[C@H](Nc2nc(NCc3ccc(-c4cccc(Cl)c4)cc3)c3ncn(C(C)C)c3n2)CC1",
    "pIC50": 5.70
  },
  {
    "Compound": "CC(=O)N[C@H]1CC[C@H](Nc2nc(NCc3ccc(-c4ccc(F)c(Cl)c4)cc3)c3ncn(C(C)C)c3n2)CC1",
    "pIC50": 5.40
  },
  {
    "Compound": "CC(C)n1cnc2c(NCc3ccc(I)cc3)nc(N[C@H]3CC[C@H](N)CC3)nc21",
    "pIC50": 7.15
  },
  {
    "Compound": "COC(=O)c1ccc(-c2ccc(CNc3nc(N[C@H]4CC[C@H](N)CC4)nc4c3ncn4C(C)C)cc2)cc1",
    "pIC50": 6.40
  },
  {
    "Compound": "CC(=O)N[C@H]1CC[C@H](Nc2nc(NCc3ccc(-c4cccc(F)c4)cc3)c3ncn(C(C)C)c3n2)CC1",
    "pIC50": 5.40
  }
]

Report pIC50 under test system CyclinE/cdk2 (Homo sapiens, UniProt P24941) for "CC(C)n1cnc2c(NCc3ccc(-c4cccnc4)cc3)nc(N[C@H]3CC[C@H](N)CC3)nc21" .
6.70

* * *

Reported endpoint: melting point

Consider the worked cases shown below.
[
  {
    "Molecule": "COc1ccc(OC)c(-c2ccc(CNc3nc(N[C@H]4CC[C@H](NC(C)=O)CC4)nc4c3ncn4C(C)C)cc2)c1 [Compound 154]",
    "Reported": "185 to 192 °C"
  },
  {
    "Molecule": "CC(=O)NCCCNc1nc(NCc2ccc(-c3ccccc3)cc2)c2ncn(C(C)C)c2n1 [Compound 212]",
    "Reported": "106 to 107 °C"
  },
  {
    "Molecule": "CC(C)n1cnc2c(NCc3ccc(-c4ccc(C(=O)O)cc4)cc3)nc(N[C@H]3CC[C@H](N)CC3)nc21 [Compound 114]",
    "Reported": "246 to 249 °C (dec.)"
  },
  {
    "Molecule": "COC(=O)c1ccc(-c2ccc(CNc3nc(N[C@H]4CC[C@H](NC(C)=O)CC4)nc4c3ncn4C(C)C)cc2)cc1 [Compound 117]",
    "Reported": "247 to 250 °C"
  }
]

Supply reported melting point belonging to this molecule: C=CCn1cnc2c(NCc3ccc(-c4ccccc4)cc3)nc(N[C@H]3CC[C@H](N)CC3)nc21 [Compound 146]
111 to 114 °C

Supply reported melting point belonging to this molecule: CC(=O)N[C@H]1CC[C@H](Nc2nc(NCc3ccc(-c4cccc(CN)c4)cc3)c3ncn(C(C)C)c3n2)CC1 [Compound 223]
200 to 206 °C

Supply reported melting point belonging to this molecule: COC(=O)c1ccc(-c2ccc(CNc3nc(N[C@H]4CC[C@H](N)CC4)nc4c3ncn4C(C)C)cc2)cc1 [Compound 115]
194 to 197 °C

Supply reported melting point belonging to this molecule: CC(=O)N[C@H]1CC[C@H](Nc2nc(NCc3cccc(-c4ccccc4)c3)c3ncn(C(C)C)c3n2)CC1 [Compound 135]
183 to 185 °C

Supply reported melting point belonging to this molecule: CC(=O)N[C@H]1CC[C@H](Nc2nc(NCc3ccc(-c4ccc(C(=O)O)cc4)cc3)c3ncn(C(C)C)c3n2)CC1 [Compound 116]
344 to 347 °C

Supply reported melting point belonging to this molecule: N[C@H]1CC[C@H](Nc2nc(NCc3ccc(-c4ccccc4)cc3)c3ncn(C4CCCC4)c3n2)CC1 [Compound 144]
144 to 146 °C
